Target system: T1, human IL-23R endogenously expressed on DB cells (human, UniProt Q5VWK5 24-629)
T1 sequence (looked up): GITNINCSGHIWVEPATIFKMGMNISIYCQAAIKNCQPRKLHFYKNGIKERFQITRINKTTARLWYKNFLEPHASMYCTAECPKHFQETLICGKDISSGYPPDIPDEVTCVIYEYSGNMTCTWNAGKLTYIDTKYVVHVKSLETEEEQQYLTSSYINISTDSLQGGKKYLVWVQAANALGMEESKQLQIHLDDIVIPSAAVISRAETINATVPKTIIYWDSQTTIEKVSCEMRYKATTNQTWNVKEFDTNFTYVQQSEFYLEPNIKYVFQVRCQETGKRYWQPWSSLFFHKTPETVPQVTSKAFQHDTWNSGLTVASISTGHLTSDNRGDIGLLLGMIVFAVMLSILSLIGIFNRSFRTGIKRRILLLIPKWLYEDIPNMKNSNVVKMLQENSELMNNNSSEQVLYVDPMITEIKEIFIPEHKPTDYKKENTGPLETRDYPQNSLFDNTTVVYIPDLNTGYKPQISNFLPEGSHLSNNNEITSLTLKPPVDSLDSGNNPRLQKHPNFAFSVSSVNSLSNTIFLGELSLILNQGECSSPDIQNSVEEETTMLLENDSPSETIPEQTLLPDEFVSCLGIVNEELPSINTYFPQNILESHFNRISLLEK
Assay protocol: cell-based or functional assay
*1 amine or outer side, *2 acyl side, *3 side chain or, on linkers, in order; H or OH if unused. Bridges are numbered along the chain shown (N, C = ends). Primed or numbered codes have the meaning given here. Where no end group is shown, it is not given here. [ ]: non-standard residue; d: D form. The star is where a group is joined. 4‑Aminomethyl‑phenylacetyl = 4-aminomethyl-phenylacetyl unit, its amine closes the lactam, O=C(Cc1ccc(CN[*:1])cc1)[*:2]; Q(pyrrolidin)″ = (2S)-2-amino-5-oxo-5-pyrrolidin-1-yl-pentanoic acid, O=C(CC[C@H](N[*:1])C(=O)[*:2])N1CCCC1; NH(2-(3-pyridyl)ethyl) = c1cncc(CCN*)c1; 2Nal = N[C@@H](Cc1ccc2ccccc2c1)C(=O)O; AEF = NCCOc1ccc(C[C@H](N)C(=O)O)cc1; 3Pal = N[C@@H](Cc1cccnc1)C(=O)O; d3Pal = N[C@H](Cc1cccnc1)C(=O)O; αMeL = CC(C)C[C@](C)(N)C(=O)O; 3Amb = NCc1cccc(C(=O)O)c1; Dab = NCC[C@H](N)C(=O)O; Sar = CNCC(=O)O
Metric name: hIL-23 (pSTAT3) antagonist % inhibition (%)

Binder: [4‑Aminomethyl‑phenylacetyl]SEWQ[Dab][AEF][2Nal][αMeL]E[Dab]-NH2 (lactam (positions not given here); lactam 3-6; not fully specified (bridges); printed as [4-Aminomethyl-phenylacetyl](1c)*SE(2c)WQ[Dab](2c)[Y(2-aminoethoxy)][2-Nal][2-Me-Leu]E(1c)[Dab]-[NH2]) [Ref 125]
Unit spec: %
hIL-23 (pSTAT3) antagonist % inhibition: 98
--
Binder: H-DCSCWQCWWLCR-NH2 (bridge 4-7, 2-11; not fully specified (bridges)) [I3 (isomer 3)]
Unit spec: %
hIL-23 (pSTAT3) antagonist % inhibition: 100
--
Binder: [4‑Aminomethyl‑phenylacetyl]SEWQ[Dab][AEF][2Nal][αMeL]E[Dab][3Pal][Sar]-NH2 (lactam N-10, 3-6; SMILES CC(C)C[C@]1(C)NC(=O)[C@H](Cc2ccc3ccccc3c2)NC(=O)[C@H](Cc2ccc(OCCN)cc2)NC(=O)[C@@H]2CCNC(=O)CC[C@H](NC(=O)[C@H](CO)NC(=O)Cc3ccc(cc3)CNC(=O)CC[C@@H](C(=O)N[C@@H](CCN)C(=O)N[C@@H](Cc3cccnc3)C(=O)N(C)CC(N)=O)NC1=O)C(=O)N[C@@H](Cc1c[nH]c3ccccc13)C(=O)N[C@@H](CCC(N)=O)C(=O)N2) [Compound 9]
Unit spec: %
hIL-23 (pSTAT3) antagonist % inhibition: 97
--
Binder: [4‑Aminomethyl‑phenylacetyl]SEWQ[Dab][AEF][2Nal][αMeL]E[Dab]-{NH(2-(3-pyridyl)ethyl)} (lactam N-10, 3-6; SMILES CC(C)C[C@]1(C)NC(=O)[C@H](Cc2ccc3ccccc3c2)NC(=O)[C@H](Cc2ccc(OCCN)cc2)NC(=O)[C@@H]2CCNC(=O)CC[C@H](NC(=O)[C@H](CO)NC(=O)Cc3ccc(cc3)CNC(=O)CC[C@@H](C(=O)N[C@@H](CCN)C(=O)NCCc3cccnc3)NC1=O)C(=O)N[C@@H](Cc1c[nH]c3ccccc13)C(=O)N[C@@H](CCC(N)=O)C(=O)N2) [Compound 7]
Unit spec: %
hIL-23 (pSTAT3) antagonist % inhibition: 98
--
Binder: [4‑Aminomethyl‑phenylacetyl]SEW[Q(pyrrolidin)″][Dab][AEF][2Nal][αMeL]E[Dab]-NH2 (lactam N-10, 3-6) [Ref 146]
Unit spec: %
hIL-23 (pSTAT3) antagonist % inhibition: 98
--
Binder: XQTWQCYWXENG ([Ac]-[Abu](16i)QTWQC(16i)[Y(2-aminoethoxy)]W[2-Me-Lys]ENG-[NH2]; (16i) [2,7] thioether bridge (cystathionine); N-terminal acetyl, C-terminal amide, Y = Y(2-aminoethoxy)) [Compound C]
Unit spec: %
hIL-23 (pSTAT3) antagonist % inhibition: 99
--
Binder: [3Amb]SCWQC[AEF][2Nal][αMeL]ER[3Pal]-NH2 (lactam N-10; bridge 3-6; not fully specified (bridges); printed as [(3-Aminomethyl)benzoyl](1c)*SC(2a)WQC(2a)[Y(2-aminoethoxy)][2-Nal][2-Me-Leu]E(1c)R[3-(3-Pyridyl)-Ala]-[NH2]) [Ref 78]
Unit spec: %
hIL-23 (pSTAT3) antagonist % inhibition: 100
--
Binder: [4‑Aminomethyl‑phenylacetyl]SEWQ[Dab][AEF][2Nal][αMeL]E[Dab][3Pal][dH]-NH2 (lactam N-10, 3-6; SMILES CC(C)C[C@]1(C)NC(=O)[C@H](Cc2ccc3ccccc3c2)NC(=O)[C@H](Cc2ccc(OCCN)cc2)NC(=O)[C@@H]2CCNC(=O)CC[C@H](NC(=O)[C@H](CO)NC(=O)Cc3ccc(cc3)CNC(=O)CC[C@@H](C(=O)N[C@@H](CCN)C(=O)N[C@@H](Cc3cccnc3)C(=O)N[C@H](Cc3c[nH]cn3)C(N)=O)NC1=O)C(=O)N[C@@H](Cc1c[nH]c3ccccc13)C(=O)N[C@@H](CCC(N)=O)C(=O)N2) [Compound 10]
Unit spec: %
hIL-23 (pSTAT3) antagonist % inhibition: 99
--
Binder: [4‑Aminomethyl‑phenylacetyl]SCWQC[AEF][2Nal][αMeL]E[Dab]-NH2 (lactam N-10; bridge 3-6; not fully specified (bridges); printed as [4-Aminomethyl-phenylacetyl](1c)*SC(2a)WQC(2a)[Y(2-aminoethoxy)][2-Nal][2-Me-Leu]E(1c)[Dab]-[NH2]) [Ref 82]
Unit spec: %
hIL-23 (pSTAT3) antagonist % inhibition: 97
--
Binder: [4‑Aminomethyl‑phenylacetyl]SCWQC[AEF][2Nal][αMeL]E[dR]-NH2 (lactam N-10; bridge 3-6; not fully specified (bridges); printed as [4-Aminomethyl-phenylacetyl](1c)*SC(2a)WQC(2a)[Y(2-aminoethoxy)][2-Nal][2-Me-Leu]E(1c)[{d}R]-[NH2], Y = Y(2-aminoethoxy), R = D-Arg) [Ref 80]
Unit spec: %
hIL-23 (pSTAT3) antagonist % inhibition: 97
--
Binder: [4‑Aminomethyl‑phenylacetyl]SEWQ[Dab][AEF][2Nal][αMeL]E[Dab][d3Pal]-NH2 (lactam N-10, 3-6) [Compound 5]
Unit spec: %
hIL-23 (pSTAT3) antagonist % inhibition: 95
